# maps each entry to its Serratia marcescens MITC95
# Tested on: Serratia marcescens expressing IMP-1 (CL5741)
# Type: cell-based
# study conditions: IMP-1 strain CL5741, with imipenem 1 μg/ml, 95% inhibition of growth

Solved cases below.
molecule	result
C[N+]1(CCN)CC[C@@H](NS(=O)(=O)c2ccc(-c3cccc4[nH]c(N)nc34)c(-c3nn[nH]n3)c2S(N)(=O)=O)C1.O=CO[O-] (some centres unmarked) [Example 248]	1.563 µM
C[C@H](CCN)NS(=O)(=O)c1ccc(-c2cccc3[nH]c(N)nc23)c(-c2nn[nH]n2)c1S(N)(=O)=O [Example 266]	0.7813 µM

Now consider a different molecule.
IN: Identify measured Serratia marcescens MITC95 associated with NCCNS(=O)(=O)c1ccc(-c2ccc3[nH]c(CN)nc3c2)c(-c2nn[nH]n2)c1S(N)(=O)=O [Example 466]
OUT: 1.563 µM

###

Listing: Efflux ratio of selected molecules
# Tested on: Pseudomonas aeruginosa MB9798 vs MB9799
# study conditions: ratio MITC95 PA_9798/MITC95 PA_9799

> print(dat)
                                   molecule                            target.entity    value.kind  result
1  NCC(F)(F)CNS(=O)(=O)c1ccc(-c2cccc3sc(N)nc23)c(-c2nnn[nH]2)c1S(N)(=O)=O  Pseudomonas aeruginosa MB9798 vs MB9799  Efflux ratio    1.00

IN: Answer with the recorded Efflux ratio for the molecule listed here: `NC[C@H](CO)NS(=O)(=O)c1ccc(-c2cccnc2N)c(-c2nn[nH]n2)c1S(N)(=O)=O`
OUT: 1.00

IN: Identify measured Efflux ratio associated with NCCNS(=O)(=O)c1ccc(C2=CC(N)CCC2)c(-c2nn[nH]n2)c1S(N)(=O)=O (stereo not shown)
OUT: 4.00

IN: Respond only with Efflux ratio recorded for NCCNS(=O)(=O)c1ccc(-c2cccc(C(=O)NCC(O)CN)c2)c(-c2nn[nH]n2)c1S(N)(=O)=O (stereo in doubt)
OUT: 2.00

###

# target entity: IMP-1 (Serratia marcescens)
# Sequence (P52699 whole entry, looked up, species assumed): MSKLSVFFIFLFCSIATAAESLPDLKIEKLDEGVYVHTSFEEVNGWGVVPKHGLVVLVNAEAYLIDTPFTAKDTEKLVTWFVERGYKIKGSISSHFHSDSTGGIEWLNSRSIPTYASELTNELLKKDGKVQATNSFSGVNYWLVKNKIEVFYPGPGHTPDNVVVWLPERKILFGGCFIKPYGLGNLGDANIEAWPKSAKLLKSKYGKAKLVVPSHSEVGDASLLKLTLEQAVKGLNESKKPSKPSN
# assay: biochemical
# Format: biochemical
# study conditions: fluorescence assay, CCF2-FA substrate, 2 pM enzyme, 2 hours at 25° C.; read-out: IMP-1 IC50
value kind: IC50 (nM)
Dear colleague, please return just the value in nM, with no unit written.

> print(dat)
                                   molecule                target.entity  numeric.value
1  NCCCNC(=O)c1cccc(-c2ccc(S(=O)(=O)NCCN)c(S(N)(=O)=O)c2-c2nn[nH]n2)c1  IMP-1 (Serratia marcescens)           4.13
2  C[C@@H](N)CNS(=O)(=O)c1ccc(-c2ccnc(N)c2)c(-c2nn[nH]n2)c1S(N)(=O)=O  IMP-1 (Serratia marcescens)          0.982
3  CC(CN)NS(=O)(=O)c1ccc(-c2cccc3sc(N)nc23)c(-c2nnn[nH]2)c1S(N)(=O)=O.O=CO (stereo not shown) [Example 116, formate]  IMP-1 (Serratia marcescens)          0.267
4  NC[C@H](O)CNS(=O)(=O)c1ccc(-c2cnc(N)c(F)c2)c(-c2nn[nH]n2)c1S(N)(=O)=O  IMP-1 (Serratia marcescens)          0.554
5  CN(CCN)S(=O)(=O)c1ccc(-c2cccc3[nH]c(N)nc23)c(-c2nn[nH]n2)c1S(N)(=O)=O  IMP-1 (Serratia marcescens)           11.8
6  Nc1nc2c(-c3ccc(S(=O)(=O)NCCN4CCC4)c(S(N)(=O)=O)c3-c3nnn[nH]3)cccc2s1  IMP-1 (Serratia marcescens)          0.383

IN: Let me know recorded IC50 for `NCCNC(=O)c1cc(Cl)cc(-c2ccc(S(=O)(=O)NCCN)c(S(N)(=O)=O)c2-c2nn[nH]n2)c1N` , thanks.
OUT: 1.6
